# study_system: Bifunctional epoxide hydrolase 2 (Homo sapiens, UniProt P34913)
# Sequence (P34913 whole entry): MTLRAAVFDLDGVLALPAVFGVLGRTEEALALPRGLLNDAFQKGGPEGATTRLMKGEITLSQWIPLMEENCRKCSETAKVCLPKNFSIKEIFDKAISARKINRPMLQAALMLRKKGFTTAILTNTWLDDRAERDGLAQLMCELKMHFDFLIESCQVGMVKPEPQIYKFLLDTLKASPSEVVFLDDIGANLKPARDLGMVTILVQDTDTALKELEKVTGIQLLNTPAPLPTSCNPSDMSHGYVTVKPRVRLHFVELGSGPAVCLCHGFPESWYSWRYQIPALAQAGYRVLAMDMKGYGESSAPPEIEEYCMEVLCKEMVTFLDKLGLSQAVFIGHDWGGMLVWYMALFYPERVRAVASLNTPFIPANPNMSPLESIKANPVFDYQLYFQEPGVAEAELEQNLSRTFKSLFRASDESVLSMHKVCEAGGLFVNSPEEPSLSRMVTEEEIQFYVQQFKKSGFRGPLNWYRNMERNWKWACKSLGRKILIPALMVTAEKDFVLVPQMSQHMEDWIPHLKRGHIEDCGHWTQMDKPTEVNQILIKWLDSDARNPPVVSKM
# procedure_details: Inhibition of recombinant human soluble epoxide hydrolase assessed as increase in fluorescence intensity by fluorescence plate reader
pIC50: −log10 of the molar value.
property: pIC50

Reference set (3 entries):
1. CS(=O)(=O)N[C@@H]1CCCN(C(=O)N[C@@H]2[C@@H](c3ccccc3)[C@H]2c2ccccc2)C1 (mixture of isomers): 8.85
2. O=C(N[C@@H]1[C@@H](c2ccccc2)[C@H]1c1ccccc1)N1CCCCC1: 8.74
3. O=C(O)CCc1ccc(OC2CCN(C(=O)N[C@@H]3[C@@H](c4ccccc4)[C@H]3c3ccccc3)CC2)cc1: 8.64

A = O=C(N[C@@H]1[C@@H](c2ccccc2)[C@H]1c1ccccc1)N1CCC[C@@H](NS(=O)(=O)c2ccc(F)cc2)C1 (mixture of isomers)
B = O=C(O)CCc1ccc(OC2CCN(C(=O)N[C@@H]3[C@@H](c4ccc(F)cc4)[C@H]3c3ccc(F)cc3)CC2)cc1
IN: Choose between A and B : whose measured pIC50 value is numerically larger? When you have decided, please share the label of that item.
OUT: A
